target: Recombinant soluble 60-mer human BAFF (His-HuBAFF 134-285) (human, UniProt Q9Y275 134-285); experiment: cell-based or functional assay
measurement kind: Soluble 60-mer huBAFF (4 pM) Neutralization IC50
Answers are plain numbers, in pM.

{"columns": ["binder", "endpoint unit", "val"],
 "data": [
  ["1002E8A6 (antibody, V domains shown) VH: EVQLQQSGPELVKPGASVKMSCKASGYTITSYVMHWVKQKPGQGLEWIGYINPNNDGTKYNEKFKGKATLTSDKSSNTAYMELSSLTSEDSAVYYCARGDYSNYFYWYFDVWGAGTTVTVSS VL: DIKMTQSPSSMYASLGERVTITCKASQDINSYLTWFQQKPGKSPETLIYRANRLVSGVPSRFSGSGSGQDYSLTISSLEYEDMGIYSCLQYDEFPYTFGGGTKLEIK", "pM", 29]
]}

Alright, here's another binder for you.
Query block: Soluble 60-mer huBAFF (4 pM) Neutralization IC50 for 443C11A12 (antibody, V domains shown) VH: EVQLQQSGPELVKPGASVKMSCTASGYTFTSYVIHWMKQKPGQGLEWIGYLHRNNDGTKYNEKFKVKATLTSDESSNTAYMELSSLTSEDSAVYYCARGDYSNYFYWYFDVWGAGTTVSVSS VL: DIKMTPSPSSMYASLGERVTITCKASQDINSYLSWFQQKPGKSPKTLIYRANRLVDGVPSRFSGSGSGQDYSLTISSLEYEDMGIYYCLQYDEFPYTSGGGTKLEIK ?
Result block: 13

Origin of values: patent US20190309034A1
